Data credit: the supplement of paper PMC10307832

system: NCI-H2228; test: relative viability (nuclei count vs DMSO), 5 days (fraction); higher = more cells survive; details: first compound 1 µM
Output met for records whose relative viability is lower than 0.4, not met for records at or above 0.4.

Observe how each entry below is paired with its result.
compound="CCN(CC)CCCCNc1ncc2cc(-c3cc(OC)cc(OC)c3)c(NC(=O)NC(C)(C)C)nc2n1 + COc1cccc2cc(-c3nc([C@H]4CC[C@H](C(=O)O)CC4)n4ncnc(N)c34)[nH]c12 [OSI-027] (partner 0.5 µM)" measurement_target=NCI-H2228 group_label=met
compound="CCN(CC)CCCCNc1ncc2cc(-c3cc(OC)cc(OC)c3)c(NC(=O)NC(C)(C)C)nc2n1 + CS(=O)(=O)N1CCN(Cc2cc3nc(-c4cccc5[nH]ncc45)nc(N4CCOCC4)c3s2)CC1 [Pictilisib] (partner 1 µM)" measurement_target=NCI-H2228 group_label=met
compound="CCN(CC)CCCCNc1ncc2cc(-c3cc(OC)cc(OC)c3)c(NC(=O)NC(C)(C)C)nc2n1 + CC(=O)Nc1cccc(-n2c(=O)n(C3CC3)c(=O)c3c(Nc4ccc(I)cc4F)n(C)c(=O)c(C)c32)c1 [Trametinib] (partner 0.02 µM)" measurement_target=NCI-H2228 group_label=met
compound="O=c1cc(N2CCOCC2)oc2c(-c3cccc4c3sc3ccccc34)cccc12 + COc1cccc2cc(-c3nc([C@H]4CC[C@H](C(=O)O)CC4)n4ncnc(N)c34)[nH]c12 [OSI-027] (partner 0.5 µM)" measurement_target=NCI-H2228 group_label="not met"
compound="O=c1cc(N2CCOCC2)oc2c(-c3cccc4c3sc3ccccc34)cccc12 + Nc1nc2[nH]cc(CCc3ccc(C(=O)N[C@@H](CCC(=O)O)C(=O)O)cc3)c2c(=O)[nH]1 [Pemetrexed] (partner 0.2 µM)" measurement_target=NCI-H2228 group_label=met

// switching to the query compound
Please indicate whether the reported relative viability of O=c1cc(N2CCOCC2)oc2c(-c3cccc4c3sc3ccccc34)cccc12 + C[C@]1(O)C[C@@H](c2nc(-c3ccc4ccc(-c5ccccc5)nc4c3)c3c(N)nccn32)C1 [Linsitinib] (partner 1 µM) is strictly below 0.4.
not met
